- TESTED_SYSTEM: SCRIB_2, Q14160
- Sequence (Q14160 857-960): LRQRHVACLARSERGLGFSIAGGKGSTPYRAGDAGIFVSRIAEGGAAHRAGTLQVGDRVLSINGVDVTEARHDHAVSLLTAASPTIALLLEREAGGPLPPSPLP
- MEASUREMENT_DESCRIPTION: holdup assay
- Design: key: below the threshold = too weak to quantify, mostly under pKd 3.1 to 4
- STUDY_CONDITIONS: plain residues with an end cap or a label only (N-terminal biotin on a linker: ahx)
VALUE_KIND: pKd

Observe how each entry below is paired with its result.
{"columns": ["BINDER", "pKd"],
 "data": [
  ["EKQAKGDTEF [CACYBP, Q9HB71]", "below the threshold"],
  ["APSRKLNTEI [TIAM1, Q13009]", "below the threshold"],
  ["TESNLQTSSC [CGN, Q9P2M7]", "below the threshold"],
  ["TQKFRASTAL [FRMPD1, Q5SYB0]", "below the threshold"],
  ["QPRTWLQSPV [RTKN, Q9BST9]", "below the threshold"],
  ["QNTDDVQTSF [ACE2, Q9BYF1]", "below the threshold"],
  ["TEAKLTETNA [MYO18A, Q92614]", "below the threshold"],
  ["QDEKVKESYV [ABCA1, O95477]", 4.61]
]}

Exercise: I am curious: what pKd value has been reported for HTHSYIETHV [CNKSR2, Q8WXI2] ?
Solution: 5.31
